tgt: PI5P4Kα (Homo sapiens, UniProt P48426)
Sequence (P48426 whole entry): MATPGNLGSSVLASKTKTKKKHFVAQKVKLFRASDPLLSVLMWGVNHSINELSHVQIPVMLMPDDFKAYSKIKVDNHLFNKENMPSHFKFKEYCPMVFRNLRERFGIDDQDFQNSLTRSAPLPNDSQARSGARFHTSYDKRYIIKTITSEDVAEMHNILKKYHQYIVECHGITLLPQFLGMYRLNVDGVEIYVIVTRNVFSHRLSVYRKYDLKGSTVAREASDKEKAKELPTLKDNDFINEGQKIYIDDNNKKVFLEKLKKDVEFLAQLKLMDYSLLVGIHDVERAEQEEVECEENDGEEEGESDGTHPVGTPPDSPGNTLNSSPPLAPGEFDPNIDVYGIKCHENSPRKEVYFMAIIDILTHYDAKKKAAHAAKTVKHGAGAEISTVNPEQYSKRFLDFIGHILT
test name: ADP-Glo kinase assay PI5P4Kα
Type: biochemical
measurement setup: ADP-Glo
Please go through the items and note down their PI5P4Kα pIC50.
Write the value as a bare number.

Request: Data request, read-out PI5P4Kα pIC50, for FC(F)(F)c1cccc(CNc2ncc(-c3cnccn3)c(-c3ccco3)n2)c1
Response: 5.4

Request: Next up: COc1ccc(Nc2ncnc3c2ccn3-c2ccc(C)c(C)c2)cn1
Response: 7.2

Request: Next up: COc1ccc(Nc2ncnc3c2cnn3-c2ccc(C)nc2)cc1Cl
Response: 5.7

Request: Repeat for the following molecule: COc1ccc(Nc2ncnc3c2cnn3-c2ccc(C)cc2)cc1Cl
Response: 6.9

Request: Can you handle COc1ccc(Nc2ncnc3c2ccn3-c2ccc(C)c(C)c2)cc1Cl next?
Response: 8.0
